# EXPERIMENTAL_SYSTEM: catalytic domain (JH1, amino acids 826-1132) of human JAK2 (Homo sapiens, UniProt O60674)
# Construct: catalytic domain (JH1, amino acids 826-1132) of human JAK2; FLAG (N)
# Sequence (O60674 826-1132): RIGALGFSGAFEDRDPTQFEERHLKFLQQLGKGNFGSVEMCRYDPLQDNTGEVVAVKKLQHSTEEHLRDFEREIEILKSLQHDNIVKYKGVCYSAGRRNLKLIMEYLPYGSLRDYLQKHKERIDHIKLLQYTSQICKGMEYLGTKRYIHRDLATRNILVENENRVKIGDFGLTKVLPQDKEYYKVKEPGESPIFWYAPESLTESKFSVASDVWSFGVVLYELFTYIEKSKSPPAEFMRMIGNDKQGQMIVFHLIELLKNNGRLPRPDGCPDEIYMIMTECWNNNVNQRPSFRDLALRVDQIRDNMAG
# TEST_DETAILS: JAK2 LanthaScreen JH1 Binding Assay
# MEASUREMENT_CONTEXT: JAK2 JH1 (1.5 nM), 50 nM fluorescent JAK2-JH1 tracer, 2 hours at 25° C.; read-out: JH1 BIND
pIC50: −log10 of the molar value.
REPORTED_ENDPOINT: pIC50

Worked set:
> print(dat)
                                   molecule  reported.endpoint           val
1  Cn1c(=O)n(C)c2c3c(-c4ccccc4)c(C4CCNCC4)[nH]c3ncc21 [Example 41]              pIC50        < 6.00
2  Cn1ncc2cc(-c3c(-c4ccc(Oc5cccnc5)nc4)[nH]c4ncc5c(c34)n(C3CCCC3)c(=O)n5C)ccc21 [Example 67]              pIC50        < 6.00
3  CC(C)n1c(=O)n(C)c2cnc3[nH]c(-c4cnn(C)c4)c(C4CCN(C(=O)Cc5ccc(S(C)(=O)=O)cc5)CC4)c3c21 [Example 107]              pIC50  6.30 to 7.00
4  CS(=O)(=O)C1CCN(Cc2ccc(-c3cc4c(ncc5c4n(-c4ccccc4)c(=O)n5CCO)[nH]3)cc2)CC1 [Example 5]              pIC50  6.30 to 7.00
5  CC(C)n1c(=O)n(C)c2cnc3[nH]c(-c4cnn(CC(C)(C)O)c4)c(-c4ccc5c(c4)CCC5O)c3c21 (centres unmarked) [Example 86]              pIC50        < 6.00

Provide pIC50 for all items below, preserving their order.
1. COc1ccc(-c2[nH]c3ncc4c(c3c2-c2ccc3c(cnn3C)c2)n(C2CCOCC2)c(=O)n4C)cn1 [Example 63]
2. CCOC(=O)N[C@H]1C[C@@H](n2c(=O)n(C)c3cnc4[nH]c(-c5cnn(C)c5)c(-c5ccc(OC)cc5)c4c32)C1 [Example 106]
3. CCOC(=O)N[C@H]1C[C@@H](n2c(=O)n(C)c3cnc4[nH]c(-c5cnn(C)c5)c(-c5ccc(C#N)cc5)c4c32)C1 [Example 105]
4. Cn1ncc2cc(-c3c(-c4cnn5cccnc45)[nH]c4ncc5c(c34)n(C3CCOCC3)c(=O)n5C)ccc21 [Example 90]
5. CC(C)Oc1ccc(-c2[nH]c3ncc4c(c3c2-c2ccc3c(cnn3C)c2)n(C2CCCC2)c(=O)n4C)cn1 [Example 65]
6. Cn1c(=O)n(C2CCCC2)c2c3c(-c4ccc(C5(C#N)CC5)cc4)c(-c4ccc(CN5CCC(S(C)(=O)=O)CC5)cc4)[nH]c3ncc21 [Example 30]

Out:
1: < 6.00; 2: < 6.00; 3: < 6.00; 4: < 6.00; 5: < 6.00; 6: 6.30 to 7.00
